Entry source: patent US9108951B2

- system_tested: purified human Factor XIa (Homo sapiens (Human), UniProt P03951)
- Sequence (P03951 388-625): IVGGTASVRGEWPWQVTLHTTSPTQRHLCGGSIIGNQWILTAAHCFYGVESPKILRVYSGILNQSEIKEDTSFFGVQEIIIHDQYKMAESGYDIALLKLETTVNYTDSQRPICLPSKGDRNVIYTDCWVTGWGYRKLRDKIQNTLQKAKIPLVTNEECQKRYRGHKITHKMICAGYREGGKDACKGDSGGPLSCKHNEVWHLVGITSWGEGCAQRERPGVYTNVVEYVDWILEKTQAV
- Sequence (P03951 19-387 partner): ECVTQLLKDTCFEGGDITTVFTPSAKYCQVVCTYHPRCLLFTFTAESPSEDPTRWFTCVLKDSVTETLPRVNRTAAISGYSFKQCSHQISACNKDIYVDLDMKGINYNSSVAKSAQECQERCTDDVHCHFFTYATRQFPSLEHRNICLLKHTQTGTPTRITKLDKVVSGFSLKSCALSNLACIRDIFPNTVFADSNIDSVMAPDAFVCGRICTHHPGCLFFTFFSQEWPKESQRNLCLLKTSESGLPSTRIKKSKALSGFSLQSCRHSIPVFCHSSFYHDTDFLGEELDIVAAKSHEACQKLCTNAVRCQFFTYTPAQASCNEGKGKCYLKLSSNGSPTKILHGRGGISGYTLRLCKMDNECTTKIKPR
Counter-ions that a name gives are not always drawn.
readout_label: Ki (nM)

(1) Cc1[nH]nc2c1C(C(=O)Nc1ccc(C(=O)OC(C)(C)C)cc1)N(C(=O)/C=C/c1c(-n3cnnn3)ccc(Cl)c1F)CC2 (stereo not drawn) [Example 76, TFA salt]
(2) O=C(O)c1ccc(NC(=O)[C@@H]2c3ccccc3CCN2C(=O)C#Cc2cc(Cl)ccc2-n2cnnn2)cc1
Problem: Of 1 and 2 , whose reported Ki is numerically smaller? Give the label of your selection.
Result: 2
(2: 7.08 nM, 1: 566 nM)
